- Test system: Enterococcus gallinarum 245
- RUN DESCRIPTION: MIC, standard broth micro-dilution assay, EG 245
- Type: cell-based
PROPERTY NAME: minimal inhibitory concentration (MIC), EG 245

| MOLECULE | SYSTEM | READOUT VALUE |
| --- | --- | --- |
| CC(C)C(C(=O)NC1C(=O)NC(CC(N)=O)C(=O)NC2C(=O)NC3C(=O)NC(C(=O)NC(C(=O)O)c4cc(O)cc(O)c4-c4cc3ccc4O)C(OC3CC(C)(N)C(O)C(C)O3)c3ccc(c(Cl)c3)Oc3cc2cc(c3OC2OC(CO)C(O)C(O)C2OC2CC(C)(N)C(O)C(C)O2)Oc2ccc(cc2Cl)C1O)N(C)C(=O)OC(C)(C)C (stereo not drawn) | Enterococcus gallinarum 245 | >64 |
| CC(C)CC(NCc1ccc(-c2ccccc2)cc1)C(=O)NC1C(=O)NC(CC(N)=O)C(=O)NC2C(=O)NC3C(=O)NC(C(=O)NC(C(=O)O)c4cc(O)cc(O)c4-c4cc3ccc4O)C(OC3CC(C)(N)C(O)C(C)O3)c3ccc(c(Cl)c3)Oc3cc2cc(c3OC2OC(CO)C(O)C(O)C2OC2CC(C)(N)C(O)C(C)O2)Oc2ccc(cc2Cl)C1O (stereo not drawn) | Enterococcus gallinarum 245 | ≦.06 |
| CC1OC(OC2c3ccc(c(Cl)c3)Oc3cc4cc(c3OC3OC(CO)C(O)C(O)C3OC3CC(C)(NCc5ccc(-c6ccccc6)cc5)C(O)C(C)O3)Oc3ccc(cc3Cl)C(O)C(NC(=O)CCCCCCCc3ccccc3)C(=O)NC(CC(N)=O)C(=O)NC4C(=O)NC3C(=O)NC2C(=O)NC(C(=O)O)c2cc(O)cc(O)c2-c2cc3ccc2O)CC(C)(N)C1O (stereo not drawn) | Enterococcus gallinarum 245 | 2 |
